So I've got a bunch of compounds here, and I need their pIC50 values.
# Target: Human full-length Hsp90 (Homo sapiens, UniProt P08238)
# Construct: E. coli expressed human full-length HSP90 protein, purified >95%; made in house; host or cells: E. coli
# Sequence (P08238 whole entry): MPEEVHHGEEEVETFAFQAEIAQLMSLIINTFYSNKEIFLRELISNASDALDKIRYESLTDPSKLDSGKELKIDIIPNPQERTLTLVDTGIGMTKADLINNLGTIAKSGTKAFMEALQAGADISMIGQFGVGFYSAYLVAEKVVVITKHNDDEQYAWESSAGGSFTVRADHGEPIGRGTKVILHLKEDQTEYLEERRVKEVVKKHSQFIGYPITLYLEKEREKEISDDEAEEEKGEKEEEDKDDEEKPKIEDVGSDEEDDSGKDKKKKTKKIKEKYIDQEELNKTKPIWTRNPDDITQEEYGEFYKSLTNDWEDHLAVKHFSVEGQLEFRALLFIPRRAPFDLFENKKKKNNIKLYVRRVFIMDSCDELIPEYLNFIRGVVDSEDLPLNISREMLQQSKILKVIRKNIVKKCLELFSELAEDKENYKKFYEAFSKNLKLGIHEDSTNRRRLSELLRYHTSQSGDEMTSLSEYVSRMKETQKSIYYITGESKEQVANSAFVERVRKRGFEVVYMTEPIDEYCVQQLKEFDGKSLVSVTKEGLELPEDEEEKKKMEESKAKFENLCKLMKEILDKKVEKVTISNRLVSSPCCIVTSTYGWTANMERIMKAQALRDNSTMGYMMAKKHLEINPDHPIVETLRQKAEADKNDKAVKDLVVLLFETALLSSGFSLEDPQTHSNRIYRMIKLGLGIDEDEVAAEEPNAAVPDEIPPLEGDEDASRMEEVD
# Experimental Protocol: Fluorescence polarization assay (competitive binding to HSP90, probe RBT0045864-FAM)
# Study Conditions: fluorescence polarization assay, activity range; read-out: Hsp90 FP IC50
pIC50: −log10 of the molar value.

Exam item: Look at this compound and give its reported pIC50. CCOC(=O)c1cc2c(-c3cccc(Cl)c3)nc(N)nc2s1
Marked response: < 5.00

Exam item: Same thing, different compound: CCOC(=O)c1cc2c(C(C#N)c3ccccc3)nc(N)nc2s1 (stereo not shown)
Marked response: > 5.00

Exam item: Same thing, different compound: CCOC(=O)c1cc2c(/C=C/c3ccc(F)cc3)nc(N)nc2s1
Marked response: > 5.00

Exam item: Same thing, different compound: CCOC(=O)c1cc2c(-c3c(Cl)cccc3OC)nc(N)nc2s1
Marked response: < 5.00

Exam item: Same thing, different compound: C=Cc1ccc(-c2nc(N)nc3sc(C(=O)OCC)cc23)c(C)c1
Marked response: > 5.00

Exam item: Same thing, different compound: CCOC(=O)c1cc2c(C(=O)c3ccc(F)cc3)nc(N)nc2s1
Marked response: > 5.00

Exam item: Same thing, different compound: Nc1nc(-c2ccc(Cl)cc2Cl)c2cc(C(=O)Nc3nccs3)sc2n1
Marked response: > 5.00

Exam item: Same thing, different compound: CCNC(=O)c1cc2c(-c3ccc(Cl)cc3C)nc(N)nc2s1
Marked response: > 5.00

Exam item: Same thing, different compound: CCOC(=O)c1cc2c(-c3csc4ccccc34)nc(N)nc2s1
Marked response: < 5.00

Exam item: Same thing, different compound: COCCCNC(=O)c1cc2c(-c3ccc(Cl)cc3Cl)nc(N)nc2s1
Marked response: > 5.00

Exam item: Same thing, different compound: Nc1nc(-c2ccc(Cl)cc2Cl)c2cc(C(=O)NC3CC3)sc2n1
Marked response: > 5.00

Exam item: Same thing, different compound: CN(C)CCCNC(=O)c1cc2c(-c3ccccc3)nc(N)nc2s1
Marked response: < 5.00

Exam item: Same thing, different compound: NC(=O)CNC(=O)c1cc2c(-c3ccccc3)nc(N)nc2s1
Marked response: > 5.00

Exam item: Same thing, different compound: CCOC(=O)c1cc2c(-c3ccc(C)cc3C)nc(N)nc2s1
Marked response: > 5.00

Exam item: Same thing, different compound: CCOC(=O)c1cc2c(-c3ccc(OCC)cc3Cl)nc(N)nc2s1
Marked response: > 5.00

Exam item: Same thing, different compound: CCOC(=O)c1cc2c(-c3cc(Cl)ccc3C)nc(N)nc2s1
Marked response: > 5.00

Exam item: Same thing, different compound: Nc1nc(-c2ccc(Cl)cc2Cl)c2cc(C(=O)NCc3ccc4c(c3)OCO4)sc2n1
Marked response: > 5.00

Exam item: Same thing, different compound: CCOC(=O)c1cc2c(-c3ccc(CN4CCOCC4)cc3)nc(N)nc2s1
Marked response: < 5.00

Exam item: Same thing, different compound: CCOC(=O)c1cc2c(C(=O)c3ccc4c(c3)OCCO4)nc(N)nc2s1
Marked response: > 5.00
